B1: PKD2L1 (parent)
chain: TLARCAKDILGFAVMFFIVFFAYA

variants of: B1; experiment: protein stability index of a GFP-peptide fusion (GPS, HEK-293T) (PSI 1-6); higher = more stable; settings: c terminus: a fixed tail appended;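 further: lentivirally expressed fusions sorted by FACS into six bins by GFP to DsRed ratio, PSI derived from sequencing read proportions per bin multiplied by bin number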
OUTCOME_MEASURE: protein stability index
Give bare numbers.

Sample records with protein stability index:
{"columns": ["VARIANT_DESCRIPTOR", "protein stability index"],
 "data": [
  ["A6K", 3.02],
  ["A6V", 2.95],
  ["I9L", 1.58],
  ["F16Q", 4.27]
]}

The reported value for `I18W` in terms of protein stability index is 3.5
